Reported IC50 values for the following molecules.
target desc: CatSper (Homo sapiens, UniProt Q7RTX7+Q86XQ3+Q8NEC5+Q96P56)
Type: cell-based
assay setup: pIC50, inhibition of PGE1-induced calcium influx, opener 10 nM PGE1 (EC80); human sperm; mean ±SD
Form entry: value (µM) — number only.

Some molecules with recorded IC50:
>  <molecule>
CC(=O)O[C@]1(C(C)=O)CC[C@H]2[C@@H]3C[C@H](C)C4=CC(=O)CC[C@]4(C)[C@H]3CC[C@@]21C [compound 4, medroxyprogesterone acetate]

>  <target desc>
CatSper (Homo sapiens, UniProt Q7RTX7+Q86XQ3+Q8NEC5+Q96P56)

>  <assay result>
9.77

$$$$
>  <molecule>
COCC(=O)O[C@]1(CCN(C)CCCc2nc3ccccc3[nH]2)CCc2cc(F)ccc2[C@@H]1C(C)C [mibefradil]

>  <target desc>
CatSper (Homo sapiens, UniProt Q7RTX7+Q86XQ3+Q8NEC5+Q96P56)

>  <assay result>
8.32

$$$$
>  <molecule>
C#C[C@]1(O)CC[C@H]2[C@@H]3CCC4=CC(=O)CC[C@@H]4[C@H]3CC[C@@]21CC [compound 5, levonorgestrel]

>  <target desc>
CatSper (Homo sapiens, UniProt Q7RTX7+Q86XQ3+Q8NEC5+Q96P56)

>  <assay result>
30.2

$$$$

Need IC50 of C[C@]12CCC(=O)C=C1CC[C@@H]1[C@@H]2[C@@H](O)C[C@]2(C=O)[C@@H](C(=O)CO)CC[C@@H]12 [compound 6, aldosterone] , thanks.
57.5
